Recorded pEC50 by entry
studyTarget: human cannabinoid receptor type 2 (Homo sapiens)
Construct: expressed in transfected cells; membrane preparation
protocolText: Human CB2 Radioligand Binding Assay
runConditions: competition with [3H] CP-55,940; membranes from stably transfected CHO CB2 cells; read-out: CB2 Ligand Binding Asssay EC50
pEC50: −log10 of the molar value.

Below, each entry is followed by its recorded pEC50 result.
{"chemSmiles": "CCOC(=O)N1CCN(c2nc(-c3ccccc3Cl)nc3cccc(Cl)c23)CC1", "observable": "pEC50", "value": "> 6.00"}
{"chemSmiles": "COc1ccc2nc(-c3ccc(C(C)(C)C)cc3)nc(N3CCN(C(C)=O)CC3)c2c1", "observable": "pEC50", "value": "> 6.00"}
{"chemSmiles": "O=S(=O)(NCc1nc(N2CCCC2)c2ccccc2n1)c1ccc(F)cc1F", "observable": "pEC50", "value": "> 6.00"}
{"chemSmiles": "CCOC(=O)N1CCN(c2nc(-c3ccccc3F)nc3ccc(OC)cc23)CC1", "observable": "pEC50", "value": "< 6.00"}
{"chemSmiles": "O=C1CCN(c2nc(-c3ccccc3Cl)nc3ccccc23)CC1", "observable": "pEC50", "value": "> 6.00"}
{"chemSmiles": "COc1ccc2nc(-c3ccccc3F)nc(N3CCCC3)c2c1", "observable": "pEC50", "value": "< 6.00"}
{"chemSmiles": "Clc1ccccc1-c1nc(N2CCN(c3nccs3)CC2)c2ccccc2n1", "observable": "pEC50", "value": "< 6.00"}
{"chemSmiles": "CN(Cc1ccccc1)c1nc(-c2ccc(Cl)cc2)nc2ccccc12", "observable": "pEC50", "value": "< 6.00"}
{"chemSmiles": "C[C@@H]1CN(c2nc(-c3ccccc3Cl)nc3ccccc23)C[C@H](C)N1", "observable": "pEC50", "value": "< 6.00"}
{"chemSmiles": "CN1CCN(c2nc(-c3ccc(Cl)cc3)nc3ccccc23)CC1", "observable": "pEC50", "value": "> 6.00"}

For human cannabinoid receptor type 2 (Homo sapiens), give the measured pEC50 of the entry `CC(=O)N1CCN(c2nc(-c3ccccc3F)nc3ccc(Cl)cc23)CC1` > 6.00

###

studyTarget: human cannabinoid receptor type 2 (Homo sapiens)
Construct: expressed in transfected cells; membrane preparation
protocolText: Human CB2 Radioligand Binding Assay
runConditions: competition with [3H] CP-55,940; membranes from stably transfected CHO CB2 cells; read-out: CB2 Ligand Binding Asssay EC50
pEC50: −log10 of the molar value.
observable: pEC50

{"molecule": "CCOC(=O)N1CCN(c2nc(-c3ccccc3Cl)nc3cccc(F)c23)CC1 [Example 247]", "pEC50": "> 6.00"}
{"molecule": "FC(F)(F)C1CCN(c2nc(-c3ccccc3Cl)nc3ccccc23)CC1 [Example 60]", "pEC50": "> 6.00"}
{"molecule": "CN(C)C(=O)C1CCN(c2nc(-c3ccccc3Cl)nc3ccccc23)CC1 [Example 102]", "pEC50": "< 6.00"}
{"molecule": "CN(Cc1ccccc1)c1nc(-c2ccc(C(C)(C)C)cc2)nc2ccccc12 [Example 113]", "pEC50": "< 6.00"}
{"molecule": "O=C1CCCN1c1nc(-c2ccccc2Cl)nc2ccccc12 [Example 70]", "pEC50": "< 6.00"}
{"molecule": "FC(F)(F)CN1CCN(c2nc(-c3ccccc3Cl)nc3ccccc23)CC1 [Example 104]", "pEC50": "> 6.00"}

Output pEC50 of CC1CCN(c2nc(-c3ccccc3Cl)nc3ccc(C(=O)NC4CCCCC4)cc23)CC1 [Example 312] > 6.00

Output pEC50 of c1ccc(Cc2nc(N3CCCCC3)c3ccccc3n2)cc1 [Example 339, 2-Benzyl-4-(piperidin-1-yl)quinazoline] < 6.00

Output pEC50 of CN(Cc1ccccc1)c1nc(-c2ccc(Cl)cc2Cl)nc2ccccc12 [Example 32] < 6.00

Output pEC50 of CCOC(=O)N1CCN(c2nc(-c3ccccc3Cl)nc3cccc(C)c23)CC1 [Example 255] > 6.00

Output pEC50 of COc1ccc2c(N3CCN(C)CC3)nc(C3CCCCC3)nc2c1 [Example 158] < 6.00

Output pEC50 of CN(c1ccc(C(C)(C)C)cc1)c1nc(-c2ccc(C(C)(C)C)cc2)nc2ccccc12 [Example 119] < 6.00

Output pEC50 of CC(C)(C)c1ccc(-c2nc(N3CCCCC3)c3ccccc3n2)cc1 [Example 111] > 6.00

Output pEC50 of CCOC(=O)N1CCN(c2nc(C3CCCCC3)nc3ccc(Cl)cc23)CC1 [Example 221] > 6.00

###

studyTarget: human cannabinoid receptor type 2 (Homo sapiens, UniProt P34972)
Construct: expressed in transfected cells; membrane preparation
Sequence (P34972 whole entry): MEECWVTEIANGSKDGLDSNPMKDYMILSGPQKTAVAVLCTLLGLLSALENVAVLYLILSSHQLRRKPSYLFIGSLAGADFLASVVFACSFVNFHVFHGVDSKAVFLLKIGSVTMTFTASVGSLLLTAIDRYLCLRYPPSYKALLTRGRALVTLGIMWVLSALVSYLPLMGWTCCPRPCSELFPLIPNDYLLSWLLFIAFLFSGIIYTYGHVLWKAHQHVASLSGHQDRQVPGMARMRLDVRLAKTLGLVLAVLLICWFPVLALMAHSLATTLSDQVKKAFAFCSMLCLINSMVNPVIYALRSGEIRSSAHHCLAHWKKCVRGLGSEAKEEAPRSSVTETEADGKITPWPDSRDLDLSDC
protocolText: Human CB2 Radioligand Binding Assay
runConditions: competition with [3H] CP-55,940; membranes from stably transfected CHO CB2 cells; read-out: CB2 Ligand Binding Asssay EC50
Description: 1. Human CB2 Radioligand Binding Assay This receptor binding filtration assay measures the receptor-ligand interactions of compounds by measuring ability to compete with a radiolabeled control ligand. […] Tritiated CP-55,940 (Perkin Elmer) was used at the Kd determined from prior saturation binding experiments conducted on each lot of membranes. […] Betaplate Scint Scintillation cocktail (25 ul, Perkin Elmer) was applied and plates were read using Microbeta Trilux (Wallac). […]
observable: EC50

Below, each entry is followed by its recorded EC50 result.
{"chemSmiles": "CC(=O)N1CCN(c2nc(-c3ccccc3Cl)nc3ccc(F)cc23)CC1", "EC50": "< 1 µM"}
{"chemSmiles": "CCCc1nc(N2CCCC2)c2ccccc2n1", "EC50": "> 1 µM"}

Next:
Output EC50 of `CCOC(=O)N1CCN(c2nc(Cc3cccc(OC)c3)nc3ccccc23)CC1` > 1 µM

###

studyTarget: human cannabinoid receptor type 2 (Homo sapiens, UniProt P34972)
Construct: expressed in transfected cells; membrane preparation
protocolText: Human CB2 Radioligand Binding Assay
runConditions: competition with [3H] CP-55,940; membranes from stably transfected CHO CB2 cells; read-out: CB2 Ligand Binding Asssay EC50
pEC50: −log10 of the molar value.
observable: pEC50

{"chemSmiles": "CN(Cc1ccccc1)c1nc(-c2ccccc2Cl)nc2ccccc12", "pEC50": "> 6.00"}
{"chemSmiles": "Cc1ccccc1Nc1nc(-c2ccccc2Cl)nc2ccccc12", "pEC50": "< 6.00"}
{"chemSmiles": "CN(c1ccc(F)cc1F)c1nc(-c2ccc(C(C)(C)C)cc2)nc2ccccc12", "pEC50": "< 6.00"}

Next:
For human cannabinoid receptor type 2 (Homo sapiens, UniProt P34972), give the measured pEC50 of the entry `O=S(=O)(NCc1nc(N2CCOCC2)c2ccccc2n1)c1ccc(Cl)cc1` < 6.00

###

studyTarget: human cannabinoid receptor type 2 (Homo sapiens, UniProt P34972)
Construct: expressed in transfected cells; membrane preparation
protocolText: Human CB2 Radioligand Binding Assay
runConditions: competition with [3H] CP-55,940; membranes from stably transfected CHO CB2 cells; read-out: CB2 Ligand Binding Asssay EC50
Recorded EC50 by entry

Below, each entry is followed by its recorded EC50 result.
{"compound": "COc1cccc2nc(-c3ccccc3Cl)nc(N3CCCC3)c12 [Example 245]", "EC50": "< 1000 nM"}
{"compound": "CC(C)c1nc(N2CCCCC2)c2ccccc2n1 [Example 146, 2-Isopropyl-4-piperidin-1-ylquinazoline]", "EC50": "> 1000 nM"}
{"compound": "Fc1ccccc1-c1nc(N2CCCC2)c2c(Cl)cccc2n1 [Example 239]", "EC50": "< 1000 nM"}
{"compound": "CC(=O)N1CCN(c2nc(-c3ccc(C(C)(C)C)cc3)nc3ccccc23)CC1 [Example 201]", "EC50": "< 1000 nM"}
{"compound": "CC(=O)N1CCN(c2nc(-c3cccc(F)c3)nc3ccccc23)CC1 [Example 154]", "EC50": "< 1000 nM"}
{"compound": "CCc1ccc2nc(-c3ccccc3Cl)nc(N3CCSCC3)c2c1 [Example 174]", "EC50": "< 1000 nM"}
{"compound": "CN(Cc1ccccc1)c1nc(-c2ccc(F)c(F)c2)nc2ccccc12 [Example 17]", "EC50": "> 1000 nM"}
{"compound": "CCCNC(=O)N1CCN(c2nc(-c3ccccc3Cl)nc3cccc(Cl)c23)CC1 [Example 284]", "EC50": "> 1000 nM"}

For human cannabinoid receptor type 2 (Homo sapiens, UniProt P34972), give the measured EC50 of the entry Clc1ccc2nc(-c3ccccc3Cl)nc(N3CCSCC3)c2c1 [Example 207] < 1000 nM

For human cannabinoid receptor type 2 (Homo sapiens, UniProt P34972), give the measured EC50 of the entry COc1ccc(Cc2nc(N3CCCCC3)c3ccccc3n2)cc1 [Example 336] > 1000 nM
